- TGT: B.1.351 Spike (SARS-CoV2)
So I've got a bunch of binders here, and I need their Response values.
Give bare numbers.

Ab_20 scFv-Fc (scFv, V domains shown) VH: QVQLVQSGGGSVKPGGSLRLSCAASGYRLSDYYMHWVRQAPGKGLEWVANIKQDGSEKYYVDSVKGRFTISRDNAKNSLYLQMNSLRAEDTAVYYCARVRGWSRGYFDYWGQGTLVTVSS VL: NFMLTQPHSVSESPGKTVTISCTGSSGSIASNYVQWYQQRPGSAPTTVIYEDNQRPSGVPDRFSGSIDSSSNSASLLISGLKTEDEADYYCQSYDSSNHWVFGGGTKLTVL ... 0.213
Ab_16 scFv-Fc (scFv, V domains shown) VH: QVQLVQSGGGVVQPGRSLRLSCAASGFTFSNYGMHWVRQAPGKGLEWVALIWERGSKKDYADSVKGRFTVSRDNSKNTLYLQMNSLRPEDTAVYFCAREGISMTGAEYFQHWGQGTLVTVSS VL: QSVLTQPPSVSGSPGQRVTMSCTGSSSNIGAGYDVHWYQQVPGAAPRLLIYGTNNRPSGVPDRFSGSKSGTSASLTITGLQAEDEADYYCQSYDNSLTDPYVFGTGTKVTVL ... 0.405
Ab_26 scFv-Fc (scFv, V domains shown) VH: QVQLVQSGGGLVQPGRSLRLSCAASGFTFDDYAMHWVRQVPGKGLEWVSGIDWNSGVIGYADSVKGRFTISRDNAKNSLYLQMNSLRAEDTALYYCAKDAYSYGFLGAFDIWGQGTMVTVSS VL: LPVLTQPPSVSVAPGQTASITCGGDNIRTKGVHWYQQKPGQAPLLVIYYASDRPSGIPERFSGSSSGNTATLTISRVEAGDEADYYCQVWDSSSDLVVFGGGTTLTVL ... 0.214

Please report the recorded Response for Ab_23 scFv-Fc (scFv, V domains shown) VH: EVQLVQSGAEVKKPGSSVKVSCRSSGGTFSTYGITWVRQAPGQGLEWMGRIIPSLGIPNYAQKFQGRVTITADTSVSTAWMELSSLESDDTAIYYCARENIDLATNDFWGQGTLVTVSS VL: QSALTQPPSASGSPGQSVTISCTGTSRDIGAYGYVSWYQQVPGKAPKLIIYEVRNRPSGVSSRFSGSKSGNTASLTISGLQAEDEADYYCSSYTSSSTLDVVFGGGTKLTVL .
0.189
